Catalogue of compounds with associated pIC50
target: HER2 S310F (Homo sapiens, UniProt P04626, S310F); construct: expressed in transfected cells; host or cells: BaF3 (murine pro-B); test: BaF3 cell proliferation assay, HER2 S310F (Table B); type: cell-based; conditions: potency code, 3 days, CellTiterGlo, read-out: HER2 S310F (Activity for Inhibiting HER2)
Sequence (P04626 23-1255 S310F): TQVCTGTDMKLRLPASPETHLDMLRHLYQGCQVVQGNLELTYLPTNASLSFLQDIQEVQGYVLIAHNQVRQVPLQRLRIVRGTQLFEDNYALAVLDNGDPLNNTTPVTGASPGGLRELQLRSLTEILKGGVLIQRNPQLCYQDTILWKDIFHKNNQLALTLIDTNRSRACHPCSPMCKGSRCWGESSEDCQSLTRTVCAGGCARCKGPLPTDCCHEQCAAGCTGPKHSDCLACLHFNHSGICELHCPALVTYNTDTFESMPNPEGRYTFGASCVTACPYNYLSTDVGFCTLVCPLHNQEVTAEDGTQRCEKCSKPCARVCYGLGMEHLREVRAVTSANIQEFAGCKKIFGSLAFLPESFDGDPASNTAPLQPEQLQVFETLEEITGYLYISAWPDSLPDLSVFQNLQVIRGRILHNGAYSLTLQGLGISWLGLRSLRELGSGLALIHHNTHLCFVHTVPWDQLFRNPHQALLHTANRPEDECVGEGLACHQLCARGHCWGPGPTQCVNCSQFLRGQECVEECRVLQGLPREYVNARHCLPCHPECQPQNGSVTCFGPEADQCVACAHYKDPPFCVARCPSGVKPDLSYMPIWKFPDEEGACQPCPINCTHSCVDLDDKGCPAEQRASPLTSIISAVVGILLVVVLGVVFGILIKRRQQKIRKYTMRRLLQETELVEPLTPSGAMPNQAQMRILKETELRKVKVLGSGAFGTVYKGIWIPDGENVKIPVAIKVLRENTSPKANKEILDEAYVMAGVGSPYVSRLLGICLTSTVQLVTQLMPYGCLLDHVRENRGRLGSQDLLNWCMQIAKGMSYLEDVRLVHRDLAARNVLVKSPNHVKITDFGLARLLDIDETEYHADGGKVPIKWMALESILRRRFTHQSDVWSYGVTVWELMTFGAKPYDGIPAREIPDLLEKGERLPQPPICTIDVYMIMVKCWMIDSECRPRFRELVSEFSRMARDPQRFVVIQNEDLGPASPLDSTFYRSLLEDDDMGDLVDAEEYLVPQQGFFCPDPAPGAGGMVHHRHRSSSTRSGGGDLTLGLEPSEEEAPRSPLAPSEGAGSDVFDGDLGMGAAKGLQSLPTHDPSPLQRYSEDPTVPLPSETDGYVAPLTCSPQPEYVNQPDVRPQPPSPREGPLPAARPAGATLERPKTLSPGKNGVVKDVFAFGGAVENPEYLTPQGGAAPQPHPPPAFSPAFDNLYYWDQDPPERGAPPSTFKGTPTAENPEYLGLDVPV
pIC50: −log10 of the molar value.

compound | target | pIC50
C=CC(=O)Nc1cc2c(Nc3ccc(Oc4ccccc4)cc3)ncnc2cc1OCCN1CCOCC1 | HER2 S310F (Homo sapiens, UniProt P04626, S310F) | 7.00 to 7.30
C=CC(=O)Nc1cc2c(Nc3ccc(OCc4ccccn4)c(Cl)c3)ncnc2cc1OCCN1CCC(OC)C1 (stereo not drawn) | HER2 S310F (Homo sapiens, UniProt P04626, S310F) | 7.70 to 8.00
CC#CC(=O)Nc1cc2c(Nc3cc(Cl)c(OCc4cccc(F)c4)cc3F)ncnc2cc1OCCCN1CC(OC)C1 | HER2 S310F (Homo sapiens, UniProt P04626, S310F) | 7.30 to 7.52
C=CC(=O)Nc1cc2c(Nc3ccc(OCc4ccccn4)c(Cl)c3)ncnc2cc1N(C)C1CCN(C)C1 (stereo not drawn) | HER2 S310F (Homo sapiens, UniProt P04626, S310F) | 6.30 to 6.52
C=CC(=O)Nc1cc2c(Nc3ccc(OCc4ccccn4)c(Cl)c3)ncnc2cc1OC1CC(N(C)C)C1 (stereo not drawn) | HER2 S310F (Homo sapiens, UniProt P04626, S310F) | 8.00 to 8.30
C=CC(=O)Nc1cc2c(Nc3ccc(OCc4cccc(F)c4)c(Cl)c3)ncnc2cc1N(C)CCN1CCOCC1 | HER2 S310F (Homo sapiens, UniProt P04626, S310F) | 6.30 to 6.52
C=CC(=O)Nc1cc2c(Nc3ccc(OCc4cccc(F)n4)c(Cl)c3)ncnc2cc1OCCCN1CC(OC)C1 | HER2 S310F (Homo sapiens, UniProt P04626, S310F) | 7.70 to 8.00
C=CC(=O)Nc1cc2c(Nc3ccc(OCc4ccccn4)c(Cl)c3)ncnc2cc1OCCN1CCC(OC)CC1 | HER2 S310F (Homo sapiens, UniProt P04626, S310F) | 7.30 to 7.52
C=CC(=O)Nc1cc2c(Nc3ccc(OCc4ccccn4)cc3)ncnc2cc1OCC1COCCN1 (stereo not drawn) | HER2 S310F (Homo sapiens, UniProt P04626, S310F) | 6.70 to 7.00
C=CC(=O)Nc1cc2c(Nc3ccc(OCc4ccccn4)c(Cl)c3)ncnc2cc1OCC1(N)CC1 | HER2 S310F (Homo sapiens, UniProt P04626, S310F) | 7.00 to 7.30
C=CC(=O)Nc1cc2c(Nc3ccc(OCc4ccccn4)c(Cl)c3)ncnc2cc1OCCN1CC2CCC(C1)O2 | HER2 S310F (Homo sapiens, UniProt P04626, S310F) | 7.52 to 7.70
C=CC(=O)Nc1cc2c(Nc3ccc(OCc4ccccn4)c(Cl)c3)ncnc2cc1N1CC2CN(C)CC2C1 (stereo not drawn) | HER2 S310F (Homo sapiens, UniProt P04626, S310F) | 7.30 to 7.52
C=CC(=O)Nc1cc2c(Nc3ccc(OCc4ccncn4)c(Cl)c3)ncnc2cc1OCCCN1CCOCC1 | HER2 S310F (Homo sapiens, UniProt P04626, S310F) | 7.30 to 7.52
C=CC(=O)Nc1cc2c(Nc3ccc(OCc4cccc(F)n4)c(Cl)c3)ncnc2cc1OCCCN1C[C@@H]2C[C@H]1CO2 | HER2 S310F (Homo sapiens, UniProt P04626, S310F) | 7.30 to 7.52
CC#CC(=O)Nc1cc2c(Nc3ccc(OCc4ccccn4)c(Cl)c3)ncnc2cc1N(C)CCN1CCOCC1 | HER2 S310F (Homo sapiens, UniProt P04626, S310F) | 7.00 to 7.30
